Consider the following binders; for each one, report its pKd.
- experimental.target: T1, human IL-17A (human, UniProt Q16552 24-155)
- T1 construct: The immunogen was IL-17A protein, R&D Systems Cat #3012; also called Interleukin-17A; Hu IL-17
- T1 sequence (Q16552 24-155 limits assumed): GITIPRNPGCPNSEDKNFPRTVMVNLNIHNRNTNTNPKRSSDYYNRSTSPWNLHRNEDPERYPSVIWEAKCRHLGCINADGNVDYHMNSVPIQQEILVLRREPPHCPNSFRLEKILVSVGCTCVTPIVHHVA
- protocol: SPR, Biacore 8k; antibody amine-coupled to the chip, IL-17A as analyte
Conceptually, pKd converts a concentration in mol/L into minus its log10.

pKd recorded for this binder, chimeric IgG4 (murine-human chimeric antibody derived from murine antibody A4 and human IgG4) (antibody, V domains shown, also called Chimeric Ab) VH: EVQLQQSGPELVKPGASVKISCKASGFTFTDYYMNWMKQSHGKSLEWIGDINPKNGGTIFNQNFRGKATLTVDKSSSTAYMELRSLTSEDSAVYYCARSILTGPFYFDYWGQGTTLTVSS VL: DIVLTQSPASLAVSLGQRAIISCKASQSVSFAGTGLMHWYQQKSGQQPKLLISRASNLEAGVPTRFSGSGSRTDFTLNIHPVEEDDAATYYCQQTMEYPTFGGGTKLEIKR , is 11.29

pKd recorded for this binder, REMD 155 (antibody, human IgG4 S228P, kappa, V domains shown, Humanized antibody derived from 23A4D8; also called IgG 1 (H1/L1); H1 + L1) VH: QVQLVQSGAEVKKPGASVKVSCKASGFTFTDYYMNWVRQAPGQGLEWMGDINPKNGGTIFNQNFRGRVTMTRDTSISTAYMELSRLRSDDTAVYYCARSILTGPFYFDYWGQGTLVTVSS VL: DIVMTQSPDSLAVSLGERATINCKASQSVSFAGTGLMHWYQQKPGQPPKLLIYRASNLEAGVPDRFSGSGSGTDFTLTISSLQAEDVAVYYCQQTMEYPTFGGGTKLEIKR , is 11.26

pKd recorded for this binder, 23A4D8 (antibody, mouse IgG2a, V domains shown, also called Murine 23A4D8; parental) VH: EVQLQQSGPELVKPGASVKISCKASGFTFTDYYMNWMKQSHGKSLEWIGDINPKNGGTIFNQNFRGKATLTVDKSSSTAYMELRSLTSEDSAVYYCARSILTGPFYFDYWGQGTTLTVSS VL: DIVLTQSPASLAVSLGQRAIISCKASQSVSFAGTGLMHWYQQKSGQQPKLLISRASNLEAGVPTRFSGSGSRTDFTLNIHPVEEDDAATYYCQQTMEYPTFGGGTKLEIK , is 11.31
